Tested on: N140
TEST DESCRIPTION: qHTS profiling for inhibitors of Plasmodium falciparum proliferation (AID 504749); further: nearly all actives have a fitted effect of over 60% in size
SETUP CONDITIONS: P. falciparum in erythrocytes, SYBR Green DNA, 72 h; series mostly up to 28.7 µM
Results filed as inconclusive are left out. Active and inactive are the calls of the source. The call rests on the fitted dose curve; in most records, active means well fitted inhibition curve with a large enough effect; inconclusive means small, poorly fitted or top-dose-only effect; inactive means flat fitted curve, though single readings scatter.
Valid outcomes are listed here; reply with one: 1 = active, -1 = inactive

Answered cases to consult:
CC[N+](C)(CC)CCOC(=O)C1c2ccccc2Oc2ccccc21: -1
O=C(O)c1ccc[n+]([O-])c1: -1
CCCCCCCCCCCCCCCCC(C(=O)O)C(O)(CC(=O)O)C(=O)O (configuration not stated): -1
CC(C(=O)O)c1ccc2c(c1)Cc1cccnc1O2 (configuration not stated): -1

[Q] Check the results log: what was the call for Cc1c(I)c(=O)n(-c2ccccc2)n1C ?
[A] -1

[Q] Check the results log: what was the call for Cc1c(NC(=O)c2cccnc2)c(=O)n(-c2ccccc2)n1C ?
[A] -1

[Q] Check the results log: what was the call for CCN(CC)CCc1nc(-c2ccccc2)no1 ?
[A] -1

[Q] Check the results log: what was the call for COc1ccc2cc(CCC(C)=O)ccc2c1 ?
[A] -1

[Q] Check the results log: what was the call for CC(N)CCCC(C)(C)O (configuration not stated) ?
[A] -1

[Q] Check the results log: what was the call for CN(C/C=C/C#CC(C)(C)C)Cc1cccc2ccccc12 ?
[A] -1

[Q] Check the results log: what was the call for CCN(CC)CCOC(=O)C(c1ccccc1)c1ccccc1 ?
[A] -1

[Q] Check the results log: what was the call for Cc1ccc(S(=O)(=O)NC(=O)NC2CCCCCCC2)cc1 ?
[A] -1

[Q] Check the results log: what was the call for CCc1cccc(CC)c1NC(=O)CN(CC(=O)O)CC(=O)O ?
[A] -1

[Q] Check the results log: what was the call for COc1ccc(O)cc1 ?
[A] -1

[Q] Check the results log: what was the call for O=C(O)Cc1cn(-c2ccccc2)nc1-c1ccc(Cl)cc1 ?
[A] -1

[Q] Check the results log: what was the call for O=C(Cn1ccnc1[N+](=O)[O-])NCCO ?
[A] -1

[Q] Check the results log: what was the call for Nc1ccncc1N ?
[A] -1

[Q] Check the results log: what was the call for O=C(O)CCCc1ccccc1 ?
[A] -1

[Q] Check the results log: what was the call for O[C@@H]1CO[C@H]2[C@@H]1OC[C@@H]2O ?
[A] -1

[Q] Check the results log: what was the call for CC(=O)Nc1ccc(OCCOCCOc2ccc(NC(C)=O)cc2)cc1 ?
[A] -1

[Q] Check the results log: what was the call for CCCCCCCCCCOc1cc2c(=O)c(C(=O)OCC)c[nH]c2cc1OCC ?
[A] 1

[Q] Check the results log: what was the call for CC(C)c1cc2c(cc1S(=O)(=O)O)[C@@]1(C)CCC[C@@](C)(C(=O)O)[C@@H]1CC2 ?
[A] -1

[Q] Check the results log: what was the call for CC(=O)NCc1c(I)c(NC(C)=O)c(I)c(C(=O)O)c1I ?
[A] -1

[Q] Check the results log: what was the call for NNc1nnc(NN)c2ccccc12 ?
[A] -1

[Q] Check the results log: what was the call for O=C(c1ccccc1)C(O)c1ccccc1 (configuration not stated) ?
[A] -1

[Q] Check the results log: what was the call for CCCCCCCCCCC(CO)CCCCCCCC (configuration not stated) ?
[A] -1

[Q] Check the results log: what was the call for Nc1ncnc2c1ncn2[C@@H]1O[C@H](COP(=O)(O)O)[C@@H](O)[C@H]1O ?
[A] -1

[Q] Check the results log: what was the call for OCC(O)CS (configuration not stated) ?
[A] -1

[Q] Check the results log: what was the call for COc1cc(C(=O)NCCCCCC(=O)O)cc(OC)c1OC ?
[A] -1

----------
Test system: P93_24
TEST DESCRIPTION: qHTS profiling for inhibitors of Plasmodium falciparum proliferation (AID 504749); further: nearly all actives have a fitted effect of over 60% in size
SETUP CONDITIONS: P. falciparum in erythrocytes, SYBR Green DNA, 72 h; series mostly up to 28.7 µM
Results filed as inconclusive are left out. Activity calls are given as the source filed them. Calls come from the whole dose curve; as a rule, active = well fitted inhibition curve with a large enough effect; inconclusive = small, poorly fitted or top-dose-only effect; inactive = flat fitted curve, though single readings scatter.
ENDPOINT: outcome

Cc1onc(-c2ccccc2)c1-c1ccc(S(N)(=O)=O)cc1: inactive
Cc1cc(C)nc(NS(=O)(=O)c2ccc(N)cc2)n1: inactive
CCOc1ccc(C(=O)OCCN(CC)CC)cc1: inactive

----------
TEST DESCRIPTION: Drug repurposing screens with cells derived from glioblastoma tumor samples (AID 1345199); further: on the % scale 0 is the no-effect control and ±100 the full control effect; nearly all actives have a fitted effect of over 40% in size
SETUP CONDITIONS: GBM patient neurospheres viability, ATP luminescence, 48 h; at 20 µM (top of the series); tumour line C
Records with an inconclusive call do not appear. Active and inactive are the calls of the source. Calls come from the whole dose curve; as a rule, active = well fitted inhibition curve with a large enough effect; inconclusive = small, poorly fitted or top-dose-only effect; inactive = flat fitted curve, though single readings scatter.
ENDPOINT: activity, negative = cell killing

Example compounds with recorded activity, negative = cell killing:
O=c1[nH]c(=O)n([C@H]2C[C@H](O)[C@@H](CO)O2)cc1I: -27.4% (inactive)
COCC(=O)Nc1c(I)c(C(=O)NCC(O)CO)c(I)c(C(=O)N(C)CC(O)CO)c1I (stereo not drawn): 5.9% (inactive)
C[n+]1ccccc1/C=N/O: -23.9% (inactive)

[Q] Return reported activity, negative = cell killing; argument: CC(=O)N(CC(O)CN(C(C)=O)c1c(I)c(C(=O)NCC(O)CO)c(I)c(C(=O)NCC(O)CO)c1I)c1c(I)c(C(=O)NCC(O)CO)c(I)c(C(=O)NCC(O)CO)c1I (stereo not drawn)
[A] 4.37% (inactive)

[Q] Return reported activity, negative = cell killing; argument: OC(CCN1CCCC1)(c1ccccc1)C1CCCCC1 (stereo not drawn)
[A] 3.06% (inactive)

----------
TEST DESCRIPTION: NFAT Signaling Pathway (AID 444);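 further: carbachol stimulus at about its EC50 of 1 µM final; on the % scale 0 is the no-effect control and ±100 the full control effect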
SETUP CONDITIONS: Jurkat NFAT-bla M1, carbachol, beta-lactamase ratio, 5 h; at 17.2 µM (top of the series) unless noted
Results filed as inconclusive are left out. Calls of active or inactive are those of the source. Calls follow the shape of the dose curve; as a rule, active = well fitted curve in either direction with a large enough effect (not every such curve was filed as active); inconclusive = small, poorly fitted or top-dose-only effect, or another doubt; inactive = flat fitted curve, though single readings scatter.
Valid outcomes are listed here; reply with one: active, inactive

Answered cases to consult:
CCN(CC)CCOC(=O)C(c1ccccc1)c1ccccc1: active
Cc1ncc(CO)c(CN)c1O: inactive

[Q] Check the results log: what was the call for CCc1cccc(CC)c1NC(=O)CN(CC(=O)O)CC(=O)O ?
[A] inactive

[Q] Check the results log: what was the call for CC(=O)[C@@]1(O)CC[C@H]2[C@@H]3C[C@H](C)C4=CC(=O)C=C[C@]4(C)[C@@]3(F)[C@@H](O)C[C@@]21C ?
[A] inactive

[Q] Check the results log: what was the call for NC(=O)CC[C@@H](N)C(=O)O ?
[A] inactive

[Q] Check the results log: what was the call for Cc1c(NC(C)C)c(=O)n(-c2ccccc2)n1C ?
[A] inactive

[Q] Check the results log: what was the call for CCOC(=O)[C@H](CCc1ccccc1)N[C@@H](C)C(=O)N1CCC[C@H]1C(=O)O ?
[A] inactive

----------
Tested on: CP335
TEST DESCRIPTION: qHTS profiling for inhibitors of Plasmodium falciparum proliferation (AID 504749); further: nearly all actives have a fitted effect of over 60% in size
SETUP CONDITIONS: P. falciparum in erythrocytes, SYBR Green DNA, 72 h; series mostly up to 28.7 µM
Description: NIH National Institute of Allergy and Infectious Diseases [NIAID] NIH Chemical Genomics Center [NCGC] […] Because mature erythrocytes lack DNA, only Plasmodium-derived DNA is detected. NCGC Assay Protocol Summary: The SYBR Green viability assay was adapted from a method described previously (Plouffe et al., 2008). […] The following morning, fluorescence intensity at 485(14) nm excitation and 535(25) nm emission wavelengths was measured on an EnVision (Perkin Elmer) plate reader. […]
Records with an inconclusive call do not appear. The source made the active and inactive calls. Calls come from the whole dose curve; as a rule, active = well fitted inhibition curve with a large enough effect; inconclusive = small, poorly fitted or top-dose-only effect; inactive = flat fitted curve, though single readings scatter.
Valid outcomes are listed here; reply with one: active, inactive

Answered cases to consult:
O=C(CN1CCNCC1)NC1CCCCC1: inactive
NS(=O)(=O)c1ccc(NC(=O)CCC(=O)O)cc1: inactive
C[C@@H]1CCC[C@H](C)N1: inactive
COc1ccc(Cc2cnc(N)nc2N)cc1OC: inactive
Cc1cc(NC(=O)C2=C(O)c3ccccc3S(=O)(=O)N2C)no1: inactive

[Q] Check the results log: what was the call for COc1cc(C(=O)NCCCCCC(=O)O)cc(OC)c1OC ?
[A] inactive

[Q] Check the results log: what was the call for CCCCCCCCCCCCCCCCC(C(=O)O)C(O)(CC(=O)O)C(=O)O (stereo unspecified) ?
[A] inactive

[Q] Check the results log: what was the call for CN1C[C@@H]2C[C@H]1CN2c1cc2c(cc1F)c(=O)c(C(=O)O)cn2C1CC1 ?
[A] active

[Q] Check the results log: what was the call for CN1CCCN=C1COC(=O)C(O)(c1ccccc1)C1CCCCC1 (stereo unspecified) ?
[A] inactive

[Q] Check the results log: what was the call for Cc1ccc(C(C)C)c(O)c1 ?
[A] inactive

[Q] Check the results log: what was the call for CC(CSC(=O)c1ccccc1)C(=O)N1C[C@@H](Sc2ccccc2)C[C@H]1C(=O)O (stereo partly specified) ?
[A] inactive
